Target: HLA-A*01:01
Test: IEDB peptide-MHC binding, purified MHC/competitive/fluorescence; filed as Kd, often an IC50 or EC50 that approximates it; bounds were set here for any values at or beyond the usual limits of such assays
Settings: source organism: Acinetobacter baumannii
quantity-measured: Kd

GET /value?item= SIYAGNTPK &field=Kd returns ≥ 20 µM

====

Target: HLA-B*27:05
Experiment: IEDB peptide-MHC binding, purified MHC/direct/fluorescence; filed as Kd, often an IC50 or EC50 that approximates it; bounds were set here for any values at or beyond the usual limits of such assays
Details: source organism: Yellow fever virus
quantity-measured: Kd

GET /value?item= SSARYDVAL &field=Kd returns ≥ 20 µM

====

Target: HLA-A*31:01
Assay: IEDB peptide-MHC binding, purified MHC/direct/fluorescence; filed as Kd, often an IC50 or EC50 that approximates it; bounds were set here for any values at or beyond the usual limits of such assays
Details: source organism: Yellow fever virus
quantity-measured: Kd

GET /value?item= SSARYDVAL &field=Kd returns ≥ 20 µM

====

Biological target: HLA-A*02:01
Test: IEDB peptide-MHC binding, purified MHC/direct/fluorescence; filed as Kd, often an IC50 or EC50 that approximates it; bounds were set here for any values at or beyond the usual limits of such assays
Conditions: source organism: Mycobacterium tuberculosis
Reported Kd values for the following sequences.

biopolymer-sequence	quantity-measured	value
RPPMVTSGL	Kd	≥ 20 µM

Now let's try a different one.
GET /value?item= MPRLSRNAA &field=Kd returns ≥ 20 µM

====

Target: HLA-A*02:01
Test: IEDB peptide-MHC binding, purified MHC/competitive/radioactivity; filed as Kd, often an IC50 or EC50 that approximates it; bounds were set here for any values at or beyond the usual limits of such assays
Details: source organism: Homo sapiens
quantity-measured: Kd (µM)
The reply should be a number in µM, with the unit left off.

GET /value?item= ALALEEKRRL &field=Kd returns 12.2

====

Target: HLA-A*02:16
Test: IEDB peptide-MHC binding, purified MHC/competitive/fluorescence; filed as Kd, often an IC50 or EC50 that approximates it; bounds were set here for any values at or beyond the usual limits of such assays
Conditions: source organism: Homo sapiens
pKd: −log10 of the molar value.
quantity-measured: pKd

GET /value?item= SQLPPACPV &field=pKd returns ≤ 4.70

====

Molecular target: HLA-B*40:01
Experiment: IEDB peptide-MHC binding, purified MHC/direct/fluorescence; filed as Kd, often an IC50 or EC50 that approximates it; bounds were set here for any values at or beyond the usual limits of such assays
Details: source organism: Corynebacterium glutamicum
quantity-measured: Kd

GET /value?item= ATQPVHWFL &field=Kd returns ≥ 20 µM

====

Biological target: HLA-A*02:03
Assay: IEDB peptide-MHC binding, purified MHC/competitive/fluorescence; filed as Kd, often an IC50 or EC50 that approximates it; bounds were set here for any values at or beyond the usual limits of such assays
Conditions: source organism: Giardia lamblia ATCC 50803
quantity-measured: Kd

biopolymer-sequence	quantity-measured	value
ALGGSCHTT	Kd	≥ 20 µM

Now let's try a different one.
GET /value?item= IARLVYKAR &field=Kd returns ≥ 20 µM

====

Target: HLA-A*03:01
Test: IEDB peptide-MHC binding, purified MHC/competitive/fluorescence; bounds were set here for any values at or beyond the usual limits of such assays
Conditions: source organism: Zaire ebolavirus
quantity-measured: IC50

biopolymer-sequence	quantity-measured	value
MVQVHSQGR	IC50	61.4 µM
DYHKILTAG	IC50	≥ 164 µM

Now let's try a different one.
GET /value?item= QRVIPVYQV &field=IC50 returns ≥ 93.5 µM
